# Test system: MOLT-4 leukemia
# Assay text: NCI tumour cell line growth inhibition, 48 h; in the data active = GI50 below about 0.43 µM; inactive = the rest
Respond using exactly one of the listed classes: yes (active), no (inactive)

Solved entries (count: 6):
1. O=C(O)C(Cc1ccccc1)N1C(=O)/C(=C/C(Cl)=C/c2ccc([N+](=O)[O-])cc2)SC1=S (centres undefined) = no
2. COc1ccc(N=c2nc3sc4cc(Cl)ccc4n3c(N)c2C#N)cc1 = no
3. COC(=O)N[C@@H](C)CNc1nccc(-c2cn(C(C)C)nc2-c2cc(Cl)cc(NS(C)(=O)=O)c2F)n1 = no
4. CN(CCOc1ccc(NS(C)(=O)=O)cc1)CCc1ccc(NS(C)(=O)=O)cc1 = no
5. Cc1nc(C(=O)OCc2ccccc2)cc(OCc2ccccc2)c1C = no
6. CCOc1ccc2cc(-c3nn(CC4CCN(C)CC4)c4ncnc(N)c34)ccc2c1 = no

# input for lookup
Asked: Write down the call the test reported for this molecule. Item: `COc1ccc(C(=O)Cn2c(C(=O)c3ccc(Cl)cc3)nc(-c3ccccc3)c2-c2ccccc2)cc1`
Given back: no

----------
# Tested on: NCI-H226 lung
# Assay text: NCI tumour cell line growth inhibition, 48 h; in the data active means GI50 below about 0.43 µM; inactive means the rest
Respond with a class label; see active, inactive

Here's what some known entries look like.
1) CCCCC[C@H]1C/C=C2/C(=O)C=C[C@@H]2C/C=C\CCCC(=O)O1 = active
2) COc1ccc(CN2c3ccccc3Sc3ccccc32)cc1O = inactive
3) CC(C)=CC(=O)OC1C2C(C)=CC(=O)C(O)C2(C)C2C3(O)OCC24C(CC(=O)OC14)C(C)C3O (configuration not stated) = active
4) COc1ccc2c(CN3CCCC[C@H]3O)cc3cc4c(cc3c2c1)OCO4 = active
5) CCOC(=O)c1sc(NC(=O)COc2ccc(/C=C3\CCc4cc(OC)ccc4C3=O)cc2)nc1C = inactive
6) CN(C)CCN=c1nc2c(c(N)n1-c1ccccc1)c(=S)n(-c1ccccc1)c(=S)n2-c1ccccc1 = inactive
7) CN(Cc1cnc2nc(N)nc(N)c2n1)c1c(Cl)cc(C(=O)NC(CCC(=O)O)C(=O)O)cc1Cl (configuration not stated) = active
8) CCN(CC)c1ccc(/C=N/N=C(N)N)cc1 = inactive
9) COc1ccc(C(=O)c2ccccc2)c(O)c1 = inactive
10) N#C/C(=C/C=C/c1cccc(Cl)c1)S(=O)c1ccccc1 (configuration not stated) = inactive

Asked: Assay outcome for COc1c(OC2OC(C)C(O)C(O)C2O)c(OC)c2oc(-c3ccc(O)cc3)cc(=O)c2c1O (configuration not stated) : what was it?
Given back: inactive

Asked: // repeat for `CSC(=S)NCc1cn(C)c2ccccc12` and report
Given back: inactive

----------
Assignment: determine reported TGI for the given compounds.
# Test system: K-562 leukemia
# Assay text: NCI tumour cell line growth inhibition, 48 h

Please review the entries below; each comes with its answer.
1) O=C(Oc1cncc(Cl)c1)c1cc2ccccc2sc1=O = > 100 µM
2) O=C(O)C12C=CC(C1)c1ccccc12 (stereo not given) = > 100 µM
3) COc1cc(/C=C2\N=C(c3ccccc3)N(c3cc4cc(Sc5ccccc5)ccc4[nH]3)C2=O)ccc1O = > 50 µM
4) CCOC(=O)c1cnc2n(c1=O)[C@H]1CCCC[C@@H]1N2 = > 100 µM

Asked: Entry COc1c(OC2OC(C)C(O)C(O)C2O)c(OC)c2oc(-c3ccc(O)cc3)cc(=O)c2c1O (stereo not given) has what TGI?
Given back: > 100 µM
